Target: T1, Shc PTB domain (17 – 207) (UniProt P29353-2 17-207)
T1 construct: Shc adaptor protein (p52 isoform), PTB domain, residues 17-207, from a pET15b vector; numbers count on: the p52 isoform (full length 1-473); 15N-labelled (M9 medium with 15NH4Cl) for the NMR experiments; Monomeric on Superdex-75; also called apo PTB domain; source: E. coli Rosetta (DE3), purified (Ni-NTA, Superdex-75)
T1 sequence (looked up): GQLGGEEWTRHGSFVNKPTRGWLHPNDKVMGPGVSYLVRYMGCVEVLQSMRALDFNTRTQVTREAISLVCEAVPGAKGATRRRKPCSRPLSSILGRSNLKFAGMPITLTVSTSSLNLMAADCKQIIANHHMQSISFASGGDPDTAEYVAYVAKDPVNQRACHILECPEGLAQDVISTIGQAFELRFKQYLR
Assay: ITC; Nano ITC; β3 phosphopeptide titrated into the Shc protein (30-150 μM); 12°C; 50 mM Tris, pH 7.5, 100 mM NaCl, 5 mM β-mercaptoethanol; independent model
Details: both partners purified
Where no end group is shown, it is not given here. [ ]: non-standard residue; d: D form. pY = N[C@@H](Cc1ccc(OP(=O)(O)O)cc1)C(=O)O
Exercise: for every item that follows, state its recorded pKd.
Here pKd is given on a logarithmic scale as minus log10 of the concentration in mol/L.

The reported pKd of the binder RAKWDTANNPL[pY]KEATSTFTNIT[pY]RGT (integrin β3 cytoplasmic tail, residues 736-762, both tyrosines phosphorylated; also called bi-phosphorylated β3 cytoplasmic tail peptide; source: synthetic peptide (NEO-Peptide)) [bi-β3: β3 integrin derived bi-phosphorylated (Y747 and Y759) peptide] was 5.36

The reported pKd of the binder ATSTFTNIT[pY]RGT (integrin β3 cytoplasmic tail, residues 750-762, Y759 phosphorylated; also called mono-phosphorylated peptide; source: synthetic peptide (NEO-Peptide)) [c-β3: β3 integrin derived peptide phosphorylated at C-terminal tyrosine (Y759)] was 5.98
